# subject.of.test: UniProt:O60674
# Sequence (O60674 whole entry): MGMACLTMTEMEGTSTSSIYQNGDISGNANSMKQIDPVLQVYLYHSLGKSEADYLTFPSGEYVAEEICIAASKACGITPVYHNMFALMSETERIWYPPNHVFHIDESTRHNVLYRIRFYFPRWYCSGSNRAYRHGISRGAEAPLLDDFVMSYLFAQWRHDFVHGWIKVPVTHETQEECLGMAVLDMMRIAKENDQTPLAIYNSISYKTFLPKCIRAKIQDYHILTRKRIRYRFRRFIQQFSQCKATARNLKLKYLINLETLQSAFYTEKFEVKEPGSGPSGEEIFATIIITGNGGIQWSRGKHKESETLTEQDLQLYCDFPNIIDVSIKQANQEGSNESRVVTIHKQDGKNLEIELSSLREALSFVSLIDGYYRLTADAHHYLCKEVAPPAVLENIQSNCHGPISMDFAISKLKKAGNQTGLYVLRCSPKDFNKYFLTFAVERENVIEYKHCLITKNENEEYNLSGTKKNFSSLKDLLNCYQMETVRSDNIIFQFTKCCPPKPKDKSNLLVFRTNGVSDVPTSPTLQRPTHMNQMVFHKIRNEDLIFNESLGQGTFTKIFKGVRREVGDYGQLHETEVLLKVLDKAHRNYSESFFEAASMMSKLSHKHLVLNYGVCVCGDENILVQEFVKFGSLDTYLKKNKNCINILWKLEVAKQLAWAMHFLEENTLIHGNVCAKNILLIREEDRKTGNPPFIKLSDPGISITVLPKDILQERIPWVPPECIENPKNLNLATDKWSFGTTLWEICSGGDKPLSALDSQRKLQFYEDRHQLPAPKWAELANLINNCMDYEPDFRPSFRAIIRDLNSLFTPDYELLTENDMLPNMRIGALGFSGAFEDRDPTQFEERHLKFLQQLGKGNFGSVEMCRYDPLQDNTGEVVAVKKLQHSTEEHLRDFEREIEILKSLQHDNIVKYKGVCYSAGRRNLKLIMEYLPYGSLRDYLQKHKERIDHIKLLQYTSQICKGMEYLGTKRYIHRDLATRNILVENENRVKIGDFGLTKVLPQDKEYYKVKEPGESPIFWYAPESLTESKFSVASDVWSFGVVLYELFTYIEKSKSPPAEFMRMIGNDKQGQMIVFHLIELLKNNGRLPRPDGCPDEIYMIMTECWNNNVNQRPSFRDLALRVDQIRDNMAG
endpoint.name: IC50 (nM)

Field: example entries. Status: answers known.
Cc1ccc(NC(=O)c2cccc(C(F)(F)F)c2)cc1N1CCc2nc(Nc3ccc(C(=O)NC4CC4)nc3)ncc2C1 [Compound 117]
18
CNC(=O)c1ccc(Nc2ncc3c(n2)CCN(c2cc(NC(=O)c4cccc(C(F)(F)F)c4)ccc2Cl)C3)cc1 [Compound 176]
15
Cc1ccc(NC(=O)CC(C)C(F)(F)F)cc1N1CCc2nc(Nc3ccc(OCCN4CCN(C)CC4)cc3)ncc2C1 (stereo not shown) [Compound 160]
15

(1) Cc1ccc(NC(=O)c2cccc(Br)c2)cc1N1CCc2nc(Nc3ccc(N4CCN(C)CC4)cc3)ncc2C1=O [Compound 58]
(2) Cc1cc(Nc2ncc3c(n2)CCN(c2cc(NC(=O)c4cccc(C(F)(F)F)c4)ccc2Cl)C3=O)ccc1N1CCN(C)CC1 [Compound 171]
(3) Cc1ccc(NC(=O)c2cccc(C(F)(F)F)c2)cc1N1CCc2nc(Nc3ccc(C(=O)NCCO)cc3)ncc2C1 [Compound 98]
Input line: Sort entries by IC50 from minimum to maximum value. Record the ranking as a list of labels in the requested order.
Output line: 3, 2, 1
(3: 7 nM, 2: 19 nM, 1: 44 nM)
